Biological target: HIV-1 protease (Human immunodeficiency virus type 1 group M subtype B, UniProt P04585)
Experiment: biochemical
Settings: HIV-1 Protease IC50
IC50 reference
Report as a plain number; the unit µM is understood.

Example entries begin here.
CCC(c1cccc(NC(=O)C(C)N)c1)c1c(O)c2ccccc2oc1=O (centres unmarked) [Example 61]: 1
O=c1oc2ccccc2c(O)c1C1CCc2ccccc21 (centres unmarked) [Example 35, 4-hydroxy-3-[1-indanyl]-coumarin]: 6.8
O=c1oc2ccccc2c(O)c1C1CCCc2ccccc21 (centres unmarked) [Example 34]: 3.6
O=c1oc2ccccc2c(O)c1C1CCCCc2ccccc21 (centres unmarked) [Example 75]: 2.4

Noted for CCCC(c1ccccc1)c1c(O)c2ccc(OC)cc2oc1=O (centres unmarked) [Example 37] : its IC50 reads 7

Noted for CCC(c1cccc(NC(=O)CCc2cccc3ccccc23)c1)c1c(O)c2ccccc2oc1=O (centres unmarked) [Example 64] : its IC50 reads 5.8

Noted for CCCC(c1ccccc1)c1c(O)c2ccccc2oc1=O (centres unmarked) [Example 10, 4-Hydroxy-3-(1-phenylbutyl)-coumarin] : its IC50 reads 1.71

Noted for CCC(c1cccc(NC(=O)CCc2ccccc2)c1)c1c(O)c2ccccc2oc1=O (centres unmarked) [Example 25] : its IC50 reads 5.2

Noted for CC(C)C(c1ccccc1)c1c(O)c2ccccc2oc1=O (centres unmarked) [Example 9] : its IC50 reads 10.6

Noted for CCC(c1cccc(NC(=O)CN)c1)c1c(O)c2ccccc2oc1=O (centres unmarked) [Example 46] : its IC50 reads 4.2

Noted for CC(c1cccc(C(=O)NCc2nc3ccccc3[nH]2)c1)c1c(O)c2ccccc2oc1=O (centres unmarked) [Example 26] : its IC50 reads 20.3
